// provenance: PubChem BioAssay (NCI)

system: U251 CNS; test: NCI tumour cell line growth inhibition, 48 h
QUANTITY: TGI

MOLECULE	TGI
CN[C@@H](C)C(=O)N[C@H]1CCS[C@H]2CC(C)(C)[C@@H](C(=O)N[C@H]3c4ccccc4C[C@H]3OCC#CC#CCO[C@@H]3Cc4ccccc4[C@@H]3NC(=O)[C@H]3N4C(=O)[C@@H](NC(=O)[C@H](C)NC)CCS[C@H]4CC3(C)C)N2C1=O	> 50 µM
COC(=O)C(Cc1c[nH]c2ccccc12)NP(=O)(O)OCC1OC(n2ccc(N)nc2=O)C(O)C1O (stereo not drawn)	> 100 µM
c1csc(-c2cc(-c3ccsc3)c(-c3ccsc3)s2)c1	> 100 µM
Nc1n[nH]c2cccc(C#Cc3cccc(NC(=O)c4ccc(N5CCOCC5)c(C(F)(F)F)c4)c3)c12	7.41 µM
Cc1cc(Cl)nc(Nc2nc3ccccc3[nH]2)n1	> 100 µM

Batch lookup, TGI per entry.
1. CCCC[C@H](NC(=O)[C@H]1CCCCN1C)C(=O)N(C)[C@H](C[C@@H](OC(C)=O)c1nc(C(=O)N[C@@H](Cc2ccccc2)C[C@H](C)C(=O)OCC)cs1)C(C)C
2. Cc1cn(C2CC(OC3CCCCO3)C(CO)O2)c(=O)[nH]c1=O (stereo not drawn)
3. COc1ccc(-c2cn[nH]c2-c2cc(OC)c(OC)c(OC)c2)cc1OCc1ccccc1

### Response
8.58 µM
> 100 µM
11.8 µM

Each of the following entries comes with a recorded value; kindly state TGI for each.
1. O=C1C(=O)c2cc([N+](=O)[O-])ccc2-c2ccc([N+](=O)[O-])cc21
2. CCOC(=O)O/C(=C\c1ccc(OC)cc1)c1c(OC(=O)OCC)n(C(=O)OCC)c2ccccc12

### Response
1. 2.36 µM
2. > 100 µM

List reported TGI for each of these molecules:
1. COc1ccc2[nH]c3c(C)c4ccncc4c(C)c3c2c1
2. Clc1ccc(-c2nnc3c4nnc(-c5ccc(Cl)cc5Cl)n4c4ccccc4n23)c(Cl)c1
3. O=S1c2ccccc2N=C(c2cccc3ccccc23)CC1c1cccc2ccccc12 (stereo not drawn)
4. COC(=O)C1=C(O)C(C(=O)OC)[C@@]2(O)[C@@H](C(=O)OC)C(c3ccc(OC(=O)/C=C/c4ccccc4)cc3)C[C@@H]1[C@@H]2C(=O)OC (stereo partly drawn)
5. O=c1n(-c2ccc(Cl)c(Cl)c2)c(=O)n(-c2ccc(Cl)c(Cl)c2)c(=O)n1-c1ccc(Cl)c(Cl)c1

### Response
4.19 µM
> 100 µM
37.7 µM
28.5 µM
10.6 µM

Hey, can you go through the list below and give me TGI for every item?
1. O=C1/C(=C\c2cccc(Oc3ccccc3)c2)SC(c2ccccc2)N1c1ccccc1Cl (stereo not drawn)
2. Cc1nc2ccccc2nc1NNc1ccccc1
3. Nc1ccc(S(=O)(=O)c2ccc(N)cc2)cc1
4. CCCCC(CCCCCC(CCCC)C1NC(C)Cc2cc(OC)c(OC)cc21)C1NC(C)Cc2cc(OC)c(OC)cc21 (stereo not drawn)
5. CC1(C)Cc2c(cnn2-c2ccc(C(F)(F)F)cc2)-c2nc(-c3ccc(O)cc3)[nH]c21
6. OCCCCC#Cc1ccccc1C#Cc1ccccn1
7. OCCCC(O)(c1ccccc1)c1ccccc1
8. O=[N+]([O-])c1ccc2c(c1)c1nn2CCCCOc2nn(c3ccc([N+](=O)[O-])cc23)CCCCO1

### Response
78.5 µM
> 93.5 µM
> 100 µM
2.63 µM
25.2 µM
> 100 µM
> 100 µM
> 100 µM

For every item below, please supply its TGI.
1. CC(C)(C)/C(O)=C\c1nc2ccc(C(F)(F)F)cc2[nH]c1=O
2. O=C(CC(=O)n1nc(-c2ccccc2)c(N=Nc2ccccc2Cl)c1-c1ccccc1)Nc1ccc(Cl)cc1

### Response
["> 100 µM", "> 55.6 µM"]

For the 2 molecules below, give their TGI values.
1. O=C(Nc1ccc2[nH]c3ccccc3c2c1)c1ccccc1Cl
2. CC(=O)OCC1OC(N2C(=O)NC(=O)C3C=C4CCCCC4=CC32)C(OC(C)=O)C1OC(C)=O (stereo not drawn)

### Response
1. > 100 µM
2. > 100 µM

Provide the reported TGI of each entry below, same order.
1. C=C1CC2(CC(c3ccccc3OC)OC(c3ccccc3OC)C2)OC1=O (stereo not drawn)
2. ClCc1ccccc1Cn1cnc2c(Cl)nc(Cl)nc21

### Response
1: 13.6 µM; 2: 0.602 µM

Below are some molecules; for each one, tell me its TGI.
1. O=c1cc(-c2ccccc2)nc(-n2[nH]c3c(c2=O)CCCC3)[nH]1
2. CN=c1ssc(/N=C(\SC)N(C)C)[n+]1C

### Response
> 100 µM
> 100 µM
